Data credit: ChEMBL document CHEMBL5046254

Assign AUC(0-t) to each entry below.
Assay: AUClast in Sprague-Dawley rat at 1 mg/kg, iv
Assay type: ADME, organism-based
Design: route intravenous, time 0 - last, dose 1 mg/kg
Details: in vivo
Write the answer as a number in ng·h/mL, unit excluded.

Asked: What AUC(0-t) value was documented for this compound, Oc1ccccc1C1=NNC(c2ccc(Br)cc2)C1 (configuration not stated) ?
Given back: 155

Asked: Look at this compound and give its reported AUC(0-t). Oc1ccccc1C1=NNC(c2ccc(Cl)cc2)C1 (configuration not stated)
Given back: 190

###

System: Mycobacterium tuberculosis
Assay: microbe, parasite or virus in culture
Settings: H37Rv ATCC 27294, 192 h
Doc: threshold 30 µg/mL (exclusive). Items with MIC90 beneath it return 1.0; others return 0.0.

Asked: # check: MIC90 < 30 µg/mL for COc1ccc(C2CC(c3ccccc3O)=NN2C(N)=S)cc1O (centres undefined)
Given back: 1.0

Asked: Take the molecule CC(=O)N1N=C(c2ccccc2O)CC1c1cccc(Cl)c1 (centres undefined) and say whether its MIC90 is less than 30 µg/mL.
Given back: 0.0

Asked: Consider the molecule NC(=S)N1N=C(c2ccccc2O)CC1c1ccccc1F (centres undefined) . Is its MIC90 strictly less than 30 µg/mL?
Given back: 1.0

Asked: Say whether its MIC90 is strictly beneath 30 µg/mL. Entry: Cc1ccc(C2CC(c3ccccc3O)=NN2)cc1 (centres undefined)
Given back: 1.0

Asked: Consider CC(=O)N1N=C(c2ccccc2O)CC1c1ccc(F)cc1 (centres undefined) . Does its MIC90 lie strictly below 30 µg/mL?
Given back: 0.0

Asked: Is it true that MIC90 reported for Oc1ccccc1C1=NNC(c2ccccc2)C1 (centres undefined) is less than 30 µg/mL?
Given back: 0.0

Asked: Is it true that MIC90 reported for CC(=O)N1N=C(c2ccccc2O)CC1c1ccccc1Cl (centres undefined) is less than 30 µg/mL?
Given back: 0.0

Asked: Lab note: MIC90 threshold 30 µg/mL. Does this molecule come in strictly under it? Oc1ccccc1C1=NNC(c2ccc(F)cc2)C1 (centres undefined)
Given back: 1.0

Asked: Please determine if CC(=O)N1N=C(c2ccccc2O)CC1c1ccc(O)cc1 (centres undefined) is below 30 µg/mL in terms of MIC90.
Given back: 0.0

Asked: Is it true that MIC90 reported for CC(=O)N1N=C(c2ccccc2O)CC1c1ccccc1C (centres undefined) is less than 30 µg/mL?
Given back: 0.0

Asked: Below 30 µg/mL on MIC90? Entry Cc1ccccc1C1CC(c2ccccc2O)=NN1 (centres undefined)
Given back: 1.0

Asked: Regarding Cc1ccccc1C1CC(c2ccccc2O)=NN1C(N)=S (centres undefined) , kindly confirm whether its MIC90 is beneath 30 µg/mL.
Given back: 1.0

Asked: Lab note: MIC90 threshold 30 µg/mL. Does this molecule come in strictly under it? Oc1ccccc1C1=NNC(c2ccccc2O)C1 (centres undefined)
Given back: 0.0

Asked: I wonder whether CC(=O)N1N=C(c2ccccc2O)CC1c1ccccc1O (centres undefined) has MIC90 below 30 µg/mL. Can you tell?
Given back: 0.0

Asked: Threshold test, MIC90 < 30 µg/mL: CC(=O)N1N=C(c2ccccc2O)CC1c1cccc(O)c1 (centres undefined)
Given back: 0.0

Asked: Strictly below 30 µg/mL: is that where MIC90 of CC(=O)N1N=C(c2ccccc2O)CC1c1ccc(C)cc1 (centres undefined) sits?
Given back: 0.0

Asked: # check: MIC90 < 30 µg/mL for COc1cccc(C2CC(c3ccccc3O)=NN2C(N)=S)c1 (centres undefined)
Given back: 0.0

Asked: Lab log: compare recorded MIC90 with 30 µg/mL; is it strictly lower for `NNC(=O)c1ccncc1` ?
Given back: 1.0

Asked: Consider the molecule COc1ccc(C2CC(c3ccccc3O)=NN2)cc1O (centres undefined) . Is its MIC90 strictly less than 30 µg/mL?
Given back: 0.0

Asked: MIC90 under 30 µg/mL? Item: NC(=S)N1N=C(c2ccccc2O)CC1c1ccccc1O (centres undefined)
Given back: 0.0

Asked: # TODO verify MIC90 < 30 µg/mL strictly for this molecule: Oc1cccc(C2CC(c3ccccc3O)=NN2)c1 (centres undefined)
Given back: 0.0

Asked: MIC90 strictly < 30 µg/mL for this molecule? Oc1ccccc1C1=NNC(c2ccccc2Cl)C1 (centres undefined)
Given back: 1.0

Asked: API: query returns whether the molecule falls strictly under 30 µg/mL in MIC90. Query: CC(=O)N1N=C(c2ccccc2O)CC1c1ccccc1 (centres undefined)
Given back: 0.0

Asked: Problem: For the molecule COc1ccc(C2CC(c3ccccc3O)=NN2C(N)=S)cc1 (centres undefined) , is MIC90 under 30 µg/mL?
Given back: 0.0

Asked: Is it true that MIC90 reported for NC(=S)N1N=C(c2ccccc2O)CC1c1ccccc1 (centres undefined) is less than 30 µg/mL?
Given back: 1.0

Asked: Confirm or reject: MIC90 of NC(=S)N1N=C(c2ccccc2O)CC1c1cccc(O)c1 (centres undefined) lies strictly below 30 µg/mL
Given back: 1.0

Asked: For COc1ccccc1C1CC(c2ccccc2O)=NN1 (centres undefined) , is the recorded MIC90 below the cut-off of 30 µg/mL?
Given back: 0.0

Asked: State whether 30 µg/mL exceeds MIC90 recorded for Oc1ccccc1C1=NNC(c2ccc(Br)cc2)C1 (centres undefined) .
Given back: 1.0

Asked: State whether 30 µg/mL exceeds MIC90 recorded for NC(=S)N1N=C(c2ccccc2O)CC1c1ccccc1Cl (centres undefined) .
Given back: 1.0

Asked: In the record for Oc1ccccc1C1=NNC(c2ccccc2F)C1 (centres undefined) , is MIC90 less than 30 µg/mL?
Given back: 1.0

Asked: In plain terms, does Oc1ccccc1C1=NNC(c2ccccc2Br)C1 (centres undefined) come in under 30 µg/mL for MIC90?
Given back: 1.0

Asked: I'd appreciate it if you could check whether Oc1ccccc1C1=NNC(c2ccc(Cl)cc2)C1 (centres undefined) has MIC90 smaller than 30 µg/mL.
Given back: 1.0

Asked: In the record for COc1ccc(C2CC(c3ccccc3O)=NN2)cc1 (centres undefined) , is MIC90 less than 30 µg/mL?
Given back: 0.0

Asked: Is MIC90 of NC(=S)N1N=C(c2ccccc2O)CC1c1cccc(Cl)c1 (centres undefined) strictly below 30 µg/mL?
Given back: 1.0

Asked: Hello, I'm reviewing records and need to know if MIC90 of COc1ccccc1C1CC(c2ccccc2O)=NN1C(N)=S (centres undefined) is below 30 µg/mL. Could you check?
Given back: 1.0

Asked: In the record for `CO[C@H]1/C=C/O[C@@]2(C)Oc3c(C)c(O)c4c(O)c(c(/C=N/N5CCN(C)CC5)c(O)c4c3C2=O)NC(=O)/C(C)=C\C=C\[C@H](C)[C@H](O)[C@@H](C)[C@@H](O)[C@@H](C)[C@H](OC(C)=O)[C@@H]1C` , is MIC90 less than 30 µg/mL?
Given back: 1.0

Asked: Does COc1ccc(C2CC(c3ccccc3O)=NN2C(C)=O)cc1O (centres undefined) have MIC90 strictly under 30 µg/mL?
Given back: 0.0

Asked: Just wondering, is MIC90 of NC(=S)N1N=C(c2ccccc2O)CC1c1ccc(Cl)cc1 (centres undefined) below 30 µg/mL?
Given back: 1.0

Asked: Lab log: compare recorded MIC90 with 30 µg/mL; is it strictly lower for CC(=O)N1N=C(c2ccccc2O)CC1c1cccc(Br)c1 (centres undefined) ?
Given back: 0.0
